- study system: ALPK1 (Homo sapiens (Human))
- Sequence (Q96QP1 whole entry): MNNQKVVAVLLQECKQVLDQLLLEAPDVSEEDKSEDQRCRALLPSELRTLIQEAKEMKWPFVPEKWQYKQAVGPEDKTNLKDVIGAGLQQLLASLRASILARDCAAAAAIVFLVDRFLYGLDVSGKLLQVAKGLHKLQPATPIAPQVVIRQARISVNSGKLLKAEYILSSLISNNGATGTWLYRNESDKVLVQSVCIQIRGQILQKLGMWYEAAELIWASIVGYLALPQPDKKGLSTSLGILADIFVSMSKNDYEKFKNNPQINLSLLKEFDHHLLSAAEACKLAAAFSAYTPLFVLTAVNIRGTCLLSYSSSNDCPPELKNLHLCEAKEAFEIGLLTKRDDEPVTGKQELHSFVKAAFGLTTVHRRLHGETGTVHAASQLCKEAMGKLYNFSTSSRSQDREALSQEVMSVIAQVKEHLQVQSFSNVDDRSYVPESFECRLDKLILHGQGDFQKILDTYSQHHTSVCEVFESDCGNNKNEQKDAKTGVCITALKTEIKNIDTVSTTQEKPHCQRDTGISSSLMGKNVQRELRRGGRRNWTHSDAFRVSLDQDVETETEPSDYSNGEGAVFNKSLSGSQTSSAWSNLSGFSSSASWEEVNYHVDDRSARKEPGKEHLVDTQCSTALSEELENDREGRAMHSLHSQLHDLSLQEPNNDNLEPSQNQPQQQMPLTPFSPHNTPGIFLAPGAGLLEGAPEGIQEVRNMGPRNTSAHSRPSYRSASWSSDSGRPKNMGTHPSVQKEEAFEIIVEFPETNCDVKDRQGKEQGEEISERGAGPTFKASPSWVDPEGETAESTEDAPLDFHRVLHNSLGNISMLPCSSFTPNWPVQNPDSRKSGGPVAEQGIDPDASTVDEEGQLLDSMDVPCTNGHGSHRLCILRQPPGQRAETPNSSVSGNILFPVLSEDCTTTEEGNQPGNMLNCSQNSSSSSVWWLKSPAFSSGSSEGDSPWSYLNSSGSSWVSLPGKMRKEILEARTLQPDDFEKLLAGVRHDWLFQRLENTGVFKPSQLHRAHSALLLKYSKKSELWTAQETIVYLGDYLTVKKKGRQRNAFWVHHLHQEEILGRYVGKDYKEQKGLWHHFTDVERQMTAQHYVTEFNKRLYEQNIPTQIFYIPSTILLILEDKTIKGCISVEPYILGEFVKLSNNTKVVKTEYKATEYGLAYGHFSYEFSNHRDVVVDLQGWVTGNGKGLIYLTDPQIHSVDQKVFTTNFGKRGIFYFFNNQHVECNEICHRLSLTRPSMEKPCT
- experiment summary: ALPK1 in vitro kinase assay (HTRF of TIFA phosphorylation)
- Assay type: biochemical
- measurement setup: ALPK1 2 nM, TIFA substrate, ADP-Heptose activator, HTRF readout
readout label: pIC50
The scale used: pIC50 is minus the common logarithm of the concentration in molar units.

Worked examples follow.
C#C[C@@](C)(c1ccc(F)cc1)c1csc(NC(=O)c2c(F)cc(N3CCC(N)C3)cc2F)n1 (stereo in doubt) [Example B091]; 7.19
COc1ccc(C(C)(C)c2csc(NC(=O)c3ccc(CN4CCNCC4)cc3)n2)cc1; 7.03
COc1ccc(C(C)(C)c2csc(NC(=O)c3cc(I)cc(I)c3O)n2)cc1; 7.11
Cc1ccc(C(C)(C)c2csc(NC(=O)c3ccc(CN4CCN(CCO)CC4)nc3)n2)cc1; 6.80

Looking up COc1ccc(C(C)(C)c2csc(NC(=O)c3ccc(N4CCC(N)C4)nc3)n2)cc1 (stereo not drawn) , I see its pIC50 listed as 6.85

Looking up COc1ccc(C(C)(C)c2csc(NC(=O)c3ccc(OCCN(C)C)cc3)n2)cc1 , I see its pIC50 listed as 7.08

====

- Test system: ALPK1-dependent NFκB reporter gene activation in HEK293 cells stably expressing an NF-kB reporter (G9 cells)
- experiment summary: NFκB gene reporter alkaline phosphatase assay
- Type: cell-based
- measurement setup: Homo sapiens, HEK293; read-out: NFkB assay IC50
Reported pIC50 values follow for various compounds
The scale used: pIC50 is minus the common logarithm of the concentration in molar units.

CC(c1ccc(Br)cc1)c1csc(NC(=O)NCc2ccc(N3CCNCC3)cc2)n1 (stereo not drawn); 5.95

Looking up COc1ccc(C(C)(C)c2csc(NC(=O)NCc3cnc(N4CCNCC4)nc3C)n2)cc1 , I see its pIC50 listed as 6.12

Looking up CC(C)(c1ccc(Br)cc1)c1csc(NC(=O)NCc2ccc(NCCN)cc2)n1 , I see its pIC50 listed as 5.83

Looking up C#C[C@](C)(c1ccc(Cl)cc1)c1csc(NC(=O)NCCS(N)(=O)=O)n1 , I see its pIC50 listed as 5.92

Looking up COc1ccc(C(C)(C)c2csc(NC(=O)NCc3ccc(C(=O)NC4CCN(C)CC4)cc3)n2)cc1 , I see its pIC50 listed as 5.89

Looking up C#C[C@@](C)(c1ccc(Cl)cc1)c1csc(NC(=O)N2CC(c3ccc(N4CCNCC4)c(F)c3)C2)n1 , I see its pIC50 listed as 6.17

Sourced from patent US20240109853A1
